Where do the numbers come from? From PubChem BioAssay (NCI).

Tested on: MDA-MB-435 melanoma
Test: NCI-60 one-dose screen, 48 h (100 = growth as untreated, 0 = no growth, -100 = all killed)
Details: 10 µM unless noted
Description: Growth inhibition of the MDA-MB-435 human Melanoma tumor cell line is measured as a screen for anti-cancer activity. Cells are grown in 96 well plates and exposed to the test compound for 48 hours. Compounds are tested at a single concentration, which is 10^-5 M for most compounds. The reported endpoint is percent growth (GI% or GIPRCNT), where numbers from 0 - 100% represent growth inhibition, and numbers from -100% - 0 represent cell death. […]
The panel holds about 83,000 compounds, 20% with a hit somewhere; the sample as a whole holds those more often.
experimental_endpoint: growth (%)
Your answer should be a plain number; it is taken to be in %.

Request: Print MDA-MB-435 melanoma growth for Cc1ccc2nc(NC(=O)CSC(=S)N3CCN(c4ccccc4)CC3)sc2c1 .
Result: 111

Request: Print MDA-MB-435 melanoma growth for CCOc1cccc(/C=N/NC(=O)C(=O)Nc2cccc(C(F)(F)F)c2)c1O .
Result: 49.6

Request: Print MDA-MB-435 melanoma growth for COc1ccc(-c2nocc2-c2cccs2)cc1 .
Result: 101

Request: Print MDA-MB-435 melanoma growth for C#CCn1cc(C=C2C(=O)NC(=O)NC2=O)c2cc(Cl)ccc21 .
Result: 88.3

Request: Print MDA-MB-435 melanoma growth for Cn1cc([C@@H]2Nc3ccc4[nH]ncc4c3[C@H]3[C@H]4CCC(C4)[C@H]32)c(C(F)(F)F)n1 .
Result: -1.69

Request: Print MDA-MB-435 melanoma growth for O=C(CCc1nnc2sc(Cc3ccccc3Cl)nn12)c1nc2ncccc2[nH]1 .
Result: 102

Request: Print MDA-MB-435 melanoma growth for O=C(Nc1ccccc1O)c1ccc(Oc2cccc(C(=O)Nc3ccccc3O)c2)cc1 .
Result: 28.3

Request: Print MDA-MB-435 melanoma growth for O=c1c(-c2nc3ccccc3[nH]2)cc2ccccc2n1Cc1cn(Cc2ccc(N3CCOCC3)cc2)nn1 .
Result: 76.6

Request: Print MDA-MB-435 melanoma growth for O=C(c1nc2ccccc2[nH]1)C1C(c2cccc([N+](=O)[O-])c2)C2CC3CCCCC3N2[C@@]12C(=O)Nc1cc(Cl)ccc12 (some centres undefined) .
Result: 35.8

---

System: SNB-75 CNS
Test: NCI-60 one-dose screen, 48 h
Details: 10 µM unless noted
Compounds without any hit were thinned out: in the full panel of roughly 83,000, 20% have a hit. Active and inactive are the calls of the source. The calls were made as follows: active = growth percent below 10; inactive = the rest.
Please answer using one outcome listed in active, inactive

Request: Per the records of this test, what outcome belongs to N[C@@H](CC/[N+]([O-])=N/O)C(=O)O ?
Result: inactive

Request: Per the records of this test, what outcome belongs to COC(=O)[C@@H]1CCCN1C(=O)[C@H]1CCCN1C(=O)[C@@H](Cc1c[nH]c2ccccc12)NC(=S)Nc1cc(C(F)(F)F)cc(C(F)(F)F)c1 ?
Result: inactive

Request: Per the records of this test, what outcome belongs to COc1ccc(-c2nsc3c2NC(=O)CC3c2ccc3c(c2)OCCO3)cc1 (stereo unspecified) ?
Result: inactive

Request: Per the records of this test, what outcome belongs to O=C(O)CCC(=O)c1ccc(C2CCCCCC2)cc1 ?
Result: inactive

Request: Per the records of this test, what outcome belongs to COc1cc(/C=C2\CCC/C(=C\c3cc(CN4CCCCC4)c(O)c(OC)c3)C2=O)cc(CN2CCCCC2)c1O ?
Result: inactive

Request: Per the records of this test, what outcome belongs to COc1ccc2occ(C3=C(c4c[nH]c5ccccc45)C(=O)NC3=O)c2c1 ?
Result: inactive

Request: Per the records of this test, what outcome belongs to O=C(/C=C/c1ccccc1)c1ccc(Nc2nc(NCCO)nc(Nc3ccc(Cl)cc3)n2)cc1 ?
Result: inactive

Request: Per the records of this test, what outcome belongs to COc1ccc(-c2nnc(COc3ccc(C(=O)/C=C/c4ccco4)cc3)o2)cc1 ?
Result: inactive

Request: Per the records of this test, what outcome belongs to CCCCNc1nc(NC(C)(C)C)nc(NC(C)(C)C)n1 ?
Result: inactive

Request: Per the records of this test, what outcome belongs to COc1cccc2cc(N(C)c3nc(C)nc4ccsc34)ccc12 ?
Result: inactive

Request: Per the records of this test, what outcome belongs to COc1ccc(-c2nc(-c3ccccn3)c(-c3ccccn3)n2CC(C)C)cc1OC1CCCC1 ?
Result: inactive

Request: Per the records of this test, what outcome belongs to O=C(CCc1nnc2sc(Cc3ccccc3Cl)nn12)c1nc2ncccc2[nH]1 ?
Result: inactive

Request: Per the records of this test, what outcome belongs to CCC(C)(C)C(=O)O[C@H]1C[C@@H](C)C=C2C=C[C@H](C)[C@H](CC[C@@H]3CC=CC(=O)O3)[C@H]21 ?
Result: inactive

Request: Per the records of this test, what outcome belongs to O=c1[nH]nnc2c1ncn2C1OC(CO)C(O)C1O (stereo unspecified) ?
Result: inactive

Request: Per the records of this test, what outcome belongs to O=S(=O)(c1ccc(NC(=S)NC23CC4CC(CC(C4)C2)C3)cc1)N1CCCCC1 ?
Result: inactive

Request: Per the records of this test, what outcome belongs to O=C(Nc1ccsc1C(=O)NC1CCCCC1)c1ccc(F)cc1 ?
Result: inactive

Request: Per the records of this test, what outcome belongs to COC(=O)/C(=C\c1c(-c2ccccc2)[nH]c2ccccc12)S(C)(=O)=O ?
Result: active

Request: Per the records of this test, what outcome belongs to O=C(c1nc2ccccc2[nH]1)C1C(c2ccc(F)cc2)C2CC3CCCCC3N2[C@@]12C(=O)Nc1ccc(Cl)cc12 (stereo partly specified) ?
Result: inactive

Request: Per the records of this test, what outcome belongs to O=Cc1c(OCc2cnnn2CC(=O)Nc2ccc(Br)cc2)ccc2ccccc12 ?
Result: inactive

Request: Per the records of this test, what outcome belongs to O=C1/C(=C/c2ccc(O)cc2)COc2ccc(O)c(O)c21 ?
Result: inactive

Request: Per the records of this test, what outcome belongs to NC1(N2SC(S)=C3CCCC=C32)CCCCC1 ?
Result: inactive

Request: Per the records of this test, what outcome belongs to COc1ccc(/C=C2\CCC/C(=C\c3ccc(OC)c(OC)c3)C2=O)cc1OC ?
Result: active

Request: Per the records of this test, what outcome belongs to C[C@@H](C(=O)NCCCC#Cc1cnc(Nc2ccc(C#N)cc2)nc1NC1CC1)N(C)C(=O)/C=C/CN(C)C ?
Result: inactive

Request: Per the records of this test, what outcome belongs to COc1cc(/C=C2\CN(C)C/C(=C\c3cc(CN4CCOCC4)c(O)c(OC)c3)C2=O)cc(CN2CCOCC2)c1O ?
Result: inactive

Request: Per the records of this test, what outcome belongs to O=c1oc2ccc(Br)cc2c(=O)n1-c1ccc(I)cc1F ?
Result: active

Request: Per the records of this test, what outcome belongs to NC1C(N)C(N)C1N (stereo unspecified) ?
Result: inactive

Request: Per the records of this test, what outcome belongs to COc1ccc(N2C(=O)CC(c3cc(OC)c(OC)c(OC)c3)C3C2=NC(=O)N3C)cc1 (stereo unspecified) ?
Result: inactive

Request: Per the records of this test, what outcome belongs to O=[N+]([O-])c1cc2c(ccc3occc32)o1 ?
Result: inactive

Request: Per the records of this test, what outcome belongs to O=NN(C(=O)NC1CCC(C(=O)O)CC1)C1CCC(C(=O)O)CC1 (stereo unspecified) ?
Result: inactive

Request: Per the records of this test, what outcome belongs to CC(C)C[C@H](C(=O)N[C@@H](C)C(N)=O)N1CC=CCN(O)S1(=O)=O ?
Result: inactive

Request: Per the records of this test, what outcome belongs to Cc1sc2ncnc(Sc3nc4ccccc4[nH]3)c2c1C ?
Result: active

Request: Per the records of this test, what outcome belongs to O=c1c(-c2nc3ccccc3[nH]2)cc2ccccc2n1Cc1cn(Cc2ccc(N3CCOCC3)cc2)nn1 ?
Result: active

Request: Per the records of this test, what outcome belongs to COc1cc(-c2c3c(c(Br)n2Cc2ccccc2)-c2nc(N)sc2CC3)cc(OC)c1OC ?
Result: inactive

Request: Per the records of this test, what outcome belongs to O=C(Nc1ccc(N2CCNCC2)cn1)c1[nH]ncc1Nc1ncnc2sc3c(c12)CCC3 ?
Result: inactive

Request: Per the records of this test, what outcome belongs to C[n+]1c2ccccc2nc2ccc(NCCO)cc21 ?
Result: inactive

Request: Per the records of this test, what outcome belongs to CCCC(=O)CC(C)=O.CCCC(=O)CC(C)=O.[Cu] ?
Result: inactive

Request: Per the records of this test, what outcome belongs to COc1ccc(-n2c(C(O)c3ccccc3)nn(CN3CCOCC3)c2=S)cc1 (stereo unspecified) ?
Result: inactive

Request: Per the records of this test, what outcome belongs to Cc1cc(OC(=O)c2ccc([N+](=O)[O-])cc2)nc2[nH]c(=O)sc12 ?
Result: inactive

Request: Per the records of this test, what outcome belongs to Brc1ccc(Oc2ccc(Nc3ncnc4onc(-c5ccccc5)c34)cc2)cc1 ?
Result: inactive

Request: Per the records of this test, what outcome belongs to Cc1ccc(NC2=CC(=O)C(=O)c3ccccc32)c(C)c1 ?
Result: inactive

Request: Per the records of this test, what outcome belongs to CCn1c(Cc2ccccc2Nc2c(Cl)cccc2Cl)nnc1SCC(=O)NN1C(=O)/C(=C/c2cccc(OC)c2OC)SC1=S ?
Result: inactive
